// data source = patent US20030220386A1

assay: logP determination by HPLC (reversed-phase C 18), EEC Directive 79/831 Annex V.A8; assay type: physicochemical; details: reversed-phase C18 HPLC column, pH 7.5, 0.01 molar aqueous phosphate buffer/acetonitrile, 43° C., read-out: log P (pH 7.5)
VALUE KIND: chromatographic logP
Give only the figure.

Please report the recorded chromatographic logP for CC1(C)OB(c2ccc(C3CCC(c4c(F)cccc4F)=N3)cc2)OC1(C)C (stereo not shown) . 4.46
